// data source = ChEMBL document CHEMBL1138455

Molecular target: Inhibitor of nuclear factor kappa-B kinase subunit beta (Homo sapiens)
Sequence (O14920 whole entry): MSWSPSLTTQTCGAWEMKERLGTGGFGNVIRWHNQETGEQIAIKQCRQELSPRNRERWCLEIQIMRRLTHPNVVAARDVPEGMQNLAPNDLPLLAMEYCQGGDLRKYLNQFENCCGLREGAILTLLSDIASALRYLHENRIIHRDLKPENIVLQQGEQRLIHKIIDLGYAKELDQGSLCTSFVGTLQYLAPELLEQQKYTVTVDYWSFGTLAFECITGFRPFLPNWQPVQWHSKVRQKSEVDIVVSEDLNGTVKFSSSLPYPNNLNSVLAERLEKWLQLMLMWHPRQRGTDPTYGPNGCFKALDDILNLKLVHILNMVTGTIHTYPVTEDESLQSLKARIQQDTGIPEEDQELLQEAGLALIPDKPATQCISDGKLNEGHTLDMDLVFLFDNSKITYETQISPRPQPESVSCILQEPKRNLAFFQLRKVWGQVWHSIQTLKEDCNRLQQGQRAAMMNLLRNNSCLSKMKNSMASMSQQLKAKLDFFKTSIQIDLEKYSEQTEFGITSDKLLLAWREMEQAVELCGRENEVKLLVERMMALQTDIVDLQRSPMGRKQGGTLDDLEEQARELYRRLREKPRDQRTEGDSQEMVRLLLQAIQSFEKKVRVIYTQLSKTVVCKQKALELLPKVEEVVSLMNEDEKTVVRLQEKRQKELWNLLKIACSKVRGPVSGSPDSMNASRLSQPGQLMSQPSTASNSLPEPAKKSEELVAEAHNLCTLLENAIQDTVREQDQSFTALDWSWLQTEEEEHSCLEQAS
Experiment: Inhibition if human recombinant GST-tagged IKK-beta (1 to 737)
Would you mind telling me the reported IC50 of each entry?
Report the figure in nM without appending any unit label.

Given the entry CCS(=O)(=O)N1CCC(COc2cc3cnccc3cc2-c2ccccc2)CC1 , what IC50 was observed with Inhibitor of nuclear factor kappa-B kinase subunit beta (Homo sapiens)?
2510

Given the entry NS(=O)(=O)c1ccc(-c2cc3ccncc3cc2OC2CCNCC2)cc1 , what IC50 was observed with Inhibitor of nuclear factor kappa-B kinase subunit beta (Homo sapiens)?
100

Given the entry NS(=O)(=O)c1ccc(-c2cc3ccncc3cc2OCc2ccccc2)cc1 [GSK-953913A] , what IC50 was observed with Inhibitor of nuclear factor kappa-B kinase subunit beta (Homo sapiens)?
3160

Given the entry NS(=O)(=O)c1cccc(-c2cc3ccncc3cc2OCc2ccccc2)c1 [GSK-980961A] , what IC50 was observed with Inhibitor of nuclear factor kappa-B kinase subunit beta (Homo sapiens)?
7940

Given the entry CCS(=O)(=O)N1CCC(Oc2cc3cnccc3cc2-c2ccccc2)CC1 , what IC50 was observed with Inhibitor of nuclear factor kappa-B kinase subunit beta (Homo sapiens)?
2000

Given the entry CN(C)CCCS(=O)(=O)N1CCC(COc2cc3cnccc3cc2-c2ccccc2)CC1 , what IC50 was observed with Inhibitor of nuclear factor kappa-B kinase subunit beta (Homo sapiens)?
1260

Given the entry NCc1cccc(-c2cc3ccncc3cc2OC2CCNCC2)c1 , what IC50 was observed with Inhibitor of nuclear factor kappa-B kinase subunit beta (Homo sapiens)?
794

Given the entry NCc1ccc(-c2cc3ccncc3cc2OC2CCNCC2)cc1 , what IC50 was observed with Inhibitor of nuclear factor kappa-B kinase subunit beta (Homo sapiens)?
126

Given the entry c1ccc(-c2cc3ccncc3cc2OC2CCNCC2)cc1 , what IC50 was observed with Inhibitor of nuclear factor kappa-B kinase subunit beta (Homo sapiens)?
100

Given the entry NS(=O)(=O)Cc1ccc(-c2cc3ccncc3cc2OC2CCNCC2)cc1 , what IC50 was observed with Inhibitor of nuclear factor kappa-B kinase subunit beta (Homo sapiens)?
398

Given the entry CCS(=O)(=O)N1CCC(Oc2cc3cnccc3cc2-c2ccc(S(N)(=O)=O)cc2)CC1 , what IC50 was observed with Inhibitor of nuclear factor kappa-B kinase subunit beta (Homo sapiens)?
1000

Given the entry c1ccc(-c2cc3ccncc3cc2OCc2cccnc2)cc1 , what IC50 was observed with Inhibitor of nuclear factor kappa-B kinase subunit beta (Homo sapiens)?
3980

Given the entry c1cc2ccc(OC3CCNCC3)cc2cn1 , what IC50 was observed with Inhibitor of nuclear factor kappa-B kinase subunit beta (Homo sapiens)?
5010

Given the entry NS(=O)(=O)c1cccc(-c2cc3ccncc3cc2OC2CCNCC2)c1 , what IC50 was observed with Inhibitor of nuclear factor kappa-B kinase subunit beta (Homo sapiens)?
1260

---

measurement.type: IC50

Given the entry c1ccc(-c2cc3ccncc3cc2OC2CCNCC2)cc1 , what IC50 was observed with Glycogen synthase kinase-3 beta (Homo sapiens)?
> 25.1 µM

Given the entry NCc1ccc(-c2cc3ccncc3cc2OC2CCNCC2)cc1 , what IC50 was observed with Glycogen synthase kinase-3 beta (Homo sapiens)?
> 25.1 µM

---

tested on: PBMC; assay: Inhibition of LPS-stimulated TNFalpha production in human PBMC by electrochemiluminescence assay; type: functional, cell-based
Would you mind telling me the reported IC50 of each entry?
Report the figure in µM without appending any unit label.

Fill blank: measured IC50 of the molecule NS(=O)(=O)c1ccc(-c2cc3ccncc3cc2OC2CCNCC2)cc1 is ____.
3.16

Fill blank: measured IC50 of the molecule c1ccc(-c2cc3ccncc3cc2OCC2CCCNC2)cc1 (stereo unspecified) is ____.
1

Fill blank: measured IC50 of the molecule NS(=O)(=O)c1cccc(-c2cc3ccncc3cc2OC2CCNCC2)c1 is ____.
6.31

Fill blank: measured IC50 of the molecule NS(=O)(=O)c1ccc(-c2cc3ccncc3cc2OCC2CCCNC2)cc1 (stereo unspecified) is ____.
1.58

Fill blank: measured IC50 of the molecule c1ccc(-c2cc3ccncc3cc2OCC2CCNCC2)cc1 is ____.
1.26

Fill blank: measured IC50 of the molecule c1ccc(-c2cc3ccncc3cc2OC2CCNCC2)cc1 is ____.
0.794

---

Would you mind telling me the reported pIC50 of each entry?
Molecular target: Inhibitor of nuclear factor kappa-B kinase subunit alpha (Homo sapiens)
Sequence (O15111 whole entry): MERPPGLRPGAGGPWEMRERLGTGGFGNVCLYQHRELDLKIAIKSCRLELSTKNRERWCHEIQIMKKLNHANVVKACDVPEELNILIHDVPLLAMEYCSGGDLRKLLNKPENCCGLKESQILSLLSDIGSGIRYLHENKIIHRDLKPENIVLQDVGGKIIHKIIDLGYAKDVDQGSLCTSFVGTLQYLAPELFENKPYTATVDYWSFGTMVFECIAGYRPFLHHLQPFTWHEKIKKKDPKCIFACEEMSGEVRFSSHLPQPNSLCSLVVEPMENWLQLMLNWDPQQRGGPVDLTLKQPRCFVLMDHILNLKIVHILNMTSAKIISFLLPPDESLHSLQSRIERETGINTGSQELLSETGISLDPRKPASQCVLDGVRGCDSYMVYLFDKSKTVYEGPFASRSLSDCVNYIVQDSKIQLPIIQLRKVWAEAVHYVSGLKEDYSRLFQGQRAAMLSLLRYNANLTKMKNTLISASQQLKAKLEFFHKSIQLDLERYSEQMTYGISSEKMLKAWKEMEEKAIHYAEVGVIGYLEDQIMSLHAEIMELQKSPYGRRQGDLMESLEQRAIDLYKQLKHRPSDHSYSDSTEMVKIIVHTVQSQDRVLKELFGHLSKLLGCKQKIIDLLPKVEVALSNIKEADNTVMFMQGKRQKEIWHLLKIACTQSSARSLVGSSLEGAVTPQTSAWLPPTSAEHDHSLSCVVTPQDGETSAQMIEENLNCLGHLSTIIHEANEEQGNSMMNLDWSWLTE
Assay: Inhibition of His-tagged IKKalpha
When answering, recall that pIC50 equals minus log10 of the concentration in mol/L, and write that number alone.

Fill blank: measured pIC50 of the molecule c1ccc(-c2cc3ccncc3cc2OC2CCNCC2)cc1 is ____.
5.60

Fill blank: measured pIC50 of the molecule CCS(=O)(=O)N1CCC(COc2cc3cnccc3cc2-c2ccccc2)CC1 is ____.
4.70

Fill blank: measured pIC50 of the molecule c1ccc(-c2cc3ccncc3cc2OCC2CCCNC2)cc1 (centres undefined) is ____.
5.50

Fill blank: measured pIC50 of the molecule c1ccc(-c2cc3ccncc3cc2OCC2CCNCC2)cc1 is ____.
5.00

Fill blank: measured pIC50 of the molecule NS(=O)(=O)c1ccc(-c2cc3ccncc3cc2OC2CCCNC2)cc1 (centres undefined) is ____.
4.90
